Biological target: T1, recombinant IL-3Rα ectodomain (Homo sapiens, UniProt P26951)
T1 construct: Immobilisation of recombinant IL-3Rα ectodomain (Sino Biologicals) was done until 761 RU; purchased Sino Biologicals
T1 sequence (P26951 19-305 limits assumed): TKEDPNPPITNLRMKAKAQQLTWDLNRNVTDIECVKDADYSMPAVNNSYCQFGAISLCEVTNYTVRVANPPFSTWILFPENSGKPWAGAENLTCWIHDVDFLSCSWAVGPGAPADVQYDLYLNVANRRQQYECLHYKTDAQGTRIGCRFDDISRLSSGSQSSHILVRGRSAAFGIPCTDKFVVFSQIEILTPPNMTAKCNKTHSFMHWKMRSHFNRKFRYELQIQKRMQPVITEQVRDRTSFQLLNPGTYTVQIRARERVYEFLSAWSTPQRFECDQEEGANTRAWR
Test: SPR (ProteOn) on recombinant IL-3Rα ectodomain
Format: binding
Quick reference for SPR - IL-3Ra kd among some molecules
Answer format: numeric, s⁻¹ implied, no suffix.

>  <molecule>
55B04: CD123 building block, SEQ ID NO: 9 (protein) VHH: EVQLVESGGGLVQPGGSLRLSCAASGINFRFNSMGWWRRRAPGKEREWVAAITSGDITNYRDSVRGRFTISRDNVKNTVYLQMNTLKLEDTAVYYCNTFPPIADYWGLGTQVTVSS

>  <unit text>
s⁻¹

>  <readout value>
0.00794

$$$$
>  <molecule>
51D09: CD123 building block, SEQ ID NO: 10 (protein) VHH: EVQLVESGGGLVQPGGSLRLSCAASGSIFSGNTMGWYRQAPGKQRELVAAISSGGSTDYADSVKGRFTISRDNSKNTVYLQMNSLRPEDTAVYYCNAAILLYRLYGYEEGDYWGLGTLVTVSS

>  <unit text>
s⁻¹

>  <readout value>
0.000516

$$$$

Annotate the molecule 55F03: CD123 building block, SEQ ID NO: 13 (protein) VHH: EVQLVESGGGLVQAGGPLRLSCAASGRTFSSYVMGWFRQAPGKEREFVAAIYWSNGKTQYTDSVKGRFTISGDNAKNTVYLQMNSLNPEDTAVYYCVADKDETGFRTLPIAYDYWGLGTQVTVSS with its measured SPR - IL-3Ra kd.
0.00487

Annotate the molecule CD123#1: anti-IL-3Ra (CD123) Nanobody, SEQ ID NO: 15 (protein) VHH: EVQLVESGGGLVQAGGSLRLSCAASGSIFSGNVMGWYRRQAPGKEREWVAAIASGGSIYYRDSVKGRFTISRDNAKNTVYLQMNSLKPEDTAVYYCNSHPPTLPYWGLGTQVTVSS with its measured SPR - IL-3Ra kd.
0.00081

Annotate the molecule 55C05: CD123 building block, SEQ ID NO: 11 (protein) VHH: EVQLVESGGGLVPAGDSLRLSCVASGRSLNTYTMGWFRQAPGKECEFVAAINWNGVYRDYADSAKGRFTASRDNAMNTVFLQMNSLKPEDTAVYFCATATQGWDRHTEPSDFGSWGLGTQVTVSS with its measured SPR - IL-3Ra kd.
0.00741

Annotate the molecule CD123#2: anti-IL-3Ra (CD123) Nanobody, SEQ ID NO: 14 (protein) VHH: EVQLVESGGGSVQAGGSLRLSCTTSGRALNMYVMGWFRQAPGNEREFVAATSSSGGSTSYPDSVKGRFTISRDNAKNTVYLQMNSLKPEDTAAYRCAASPYVSTPTMNILEEYRYWGLGTQVTVSS with its measured SPR - IL-3Ra kd.
0.0014

Annotate the molecule 50F07: CD123 building block, SEQ ID NO: 12 (protein) VHH: EVQLVESGGGLVQPGGSLRLSCTGSGSTFSINAMGWYRQAPGKQRELVAAITSGGRTNYADSVKGRFTISRDNSKNTVYLQMNSLRPEDTAVYYCNARISAGTAFWLWSDYEYWGLGTLVTVSS with its measured SPR - IL-3Ra kd.
0.00758
